# Tested on: velvetleaf (Abutilon theophrasti, ABUTH)
# test: Pre-emerge test, greenhouse herbicide activity screening
# Type: in vivo
# conditionSet: pre-emerge, rate 63 g ai/ha, phytotoxicity rating 0-100 at 14 days after application
Please provide measured Pre-emerge Herbicidal Activity ABUTH for the entries that follow.
Please reply with the value in numeric form only.

State its Pre-emerge Herbicidal Activity ABUTH on velvetleaf (Abutilon theophrasti, ABUTH): `COc1cccc(OC)c1OC(=O)Nc1c(C)c(Cl)cc(F)c1-n1c(=O)cc(C(F)(F)F)n(C)c1=O` 100

And then `COc1ccccc1COC(=O)Nc1c(C)c(Cl)cc(F)c1-n1c(=O)cc(C(F)(F)F)n(C)c1=O` , what is it? 100

And then `Cc1ccccc1COC(=O)Nc1c(C)c(Cl)cc(F)c1-n1c(=O)cc(C(F)(F)F)n(C)c1=O` , what is it? 100

And then `C=Cc1ccc(C(=O)Nc2c(OC)c(Cl)cc(F)c2N2C(=O)C3=C(CCCC3)C2=O)cc1` , what is it? 70

And then `COc1c(Cl)cc(F)c(-n2ncc(C(F)(F)F)c(C)c2=O)c1NC(=O)c1ccc2ccccc2c1` , what is it? 95

And then `Cc1nn(-c2c(F)cc(Cl)cc2NC(=O)c2ccc(F)cc2F)c(=O)n1C(F)F` , what is it? 0

And then `Cc1ccc(COC(=O)Nc2c(C)c(Cl)cc(F)c2-n2c(=O)cc(C(F)(F)F)n(C)c2=O)cc1` , what is it? 100

And then `COc1c(Cl)cc(F)c(-n2ncc(C(F)(F)F)cc2=O)c1NC(=O)c1ccc2ccccc2c1` , what is it? 95

---

# System: field corn (Zea mays L., var. Dekalb 535, CORN)
# test: Post-emerge test, crop safety
# Assay type: in vivo
# conditionSet: 250 g ai/ha; post-emerge; 14 days after application; rating scale 0-100
Please provide measured Post-emerge Herbicidal Activity CORN (crop damage rating) for the entries that follow.
Please reply with the value in numeric form only.

Query (compound): `COc1c(Cl)cc(F)c(-n2c(=O)cc(C(F)(F)F)n(C)c2=O)c1NNC(=O)c1ccc(F)cc1F` ; field requested: Post-emerge Herbicidal Activity CORN (crop damage rating) 90

And then `COc1c(Cl)cc(F)c(-n2c(=O)cc(C(F)(F)F)n(C)c2=O)c1SC` , what is it? 5

And then `Cn1c(C(F)(F)F)cc(=O)n(-c2c(O)cc(Cl)cc2Cl)c1=O` , what is it? 0

And then `Cn1c(C(F)(F)F)cc(=O)n(-c2c(Cl)cc(Cl)cc2OC(=O)c2ccc(F)cc2F)c1=O` , what is it? 0

And then `COc1c(Cl)cc(F)c(-n2c(=O)cc(C(F)(F)F)n(C)c2=O)c1NN=C(C(F)(F)F)C(F)(F)F` , what is it? 90

And then `COCC(C)=NNc1c(OC)c(Cl)cc(F)c1-n1c(=O)cc(C(F)(F)F)n(C)c1=O` , what is it? 50

And then C#CCOC(=O)C(C)(Cl)Cc1c(OC)c(Cl)cc(F)c1-n1c(=O)cc(C(F)(F)F)n(C)c1=O (centres unmarked) , what is it? 100

And then CCOC(=O)C(Cl)Cc1c(OC)c(Cl)cc(F)c1-n1nc(C(F)(F)F)n(C)c1=O (centres unmarked) , what is it? 70

---

# System: johnsongrass (Sorghum halepense, SORHA)
# test: Post-emerge test, greenhouse herbicide activity screening
# Format: in vivo
# conditionSet: post-emerge, 63 g ai/ha, phytotoxicity rating 0-100 at 14 days after application
Please provide measured Post-emerge Herbicidal Activity SORHA for the entries that follow.
Please reply with the value in numeric form only.

Query (compound): `Cc1c(Cl)cc(F)c(-n2c(=O)cc(C(F)(F)F)n(C)c2=O)c1NC(=O)SCc1ccccc1` ; field requested: Post-emerge Herbicidal Activity SORHA 0

And then `C#CCOc1c(Cl)cc(F)c(N2C(=O)C3=C(CCCC3)C2=O)c1NC(=O)c1ccc(F)cc1F` , what is it? 10

And then Nc1c(O)c(Cl)cc(F)c1N1C(=O)C2CCCCN2C1=S (single isomer, unassigned) , what is it? 0

And then O=C(Nc1cc(Cl)ccc1N1C(=O)C2CCCCN2C1=O)c1ccc2ccccc2c1 (centres unmarked) , what is it? 0

And then `Cc1c(Cl)cc(F)c(-n2c(=O)cc(C(F)(F)F)n(C)c2=O)c1NC(=O)OCc1ccc(Cl)cc1Cl` , what is it? 30

And then `O=C(Nc1cc(Cl)ccc1-n1c(=O)n2n(c1=O)CCCC2)c1ccc2ccccc2c1` , what is it? 0

And then `C#CCOc1c(Cl)cc(F)c(N2C(=O)C3=C(CCCC3)C2=O)c1N` , what is it? 0

And then `COc1ccc(COC(=O)Nc2c(C)c(Cl)cc(F)c2-n2c(=O)cc(C(F)(F)F)n(C)c2=O)cc1OC` , what is it? 0

And then `COc1c(Cl)cc(F)c(-n2c(=O)n3n(c2=O)CCCC3)c1NC(=O)c1ccc(F)cc1F` , what is it? 0

And then `C#CCOc1c(Cl)cc(F)c(-n2nnn(CCCF)c2=O)c1N` , what is it? 0

And then `Nc1c(OC2CCCC2)c(Cl)cc(F)c1N1C(=O)C2=C(CCCC2)C1=O` , what is it? 0

---

Please provide measured phytotoxicity rating DIGSA for the entries that follow.
# System: large crabgrass (Digitaria sanguinalis, DIGSA)
# test: Pre-emerge test, greenhouse herbicide activity screening
# Assay type: in vivo
# conditionSet: pre-emerge, 63 g ai/ha, 14 days after application, rating scale 0-100
Please reply with the value in numeric form only.

State its phytotoxicity rating DIGSA on large crabgrass (Digitaria sanguinalis, DIGSA): `C=CC=NNc1c(OC)c(Cl)cc(F)c1-n1c(=O)cc(C(F)(F)F)n(C)c1=O` 100

And then `COc1cc(Cl)cc(Cl)c1-n1c(=O)cc(C(F)(F)F)n(C)c1=O` , what is it? 0

And then `COc1c(Cl)cc(F)c(-n2c(=O)cc(C(F)(F)F)n(C)c2=O)c1NN=CC1CC1` , what is it? 100

---

# Tested on: sicklepod (Cassia obtusifolia, CASOB)
# test: Pre-emerge test, greenhouse herbicide activity screening
# Format: in vivo
# conditionSet: pre-emerge, 63 g ai/ha, 14 days after application, rating scale 0-100
# Experimental: A standard greenhouse herbicide activity screening system was used to evaluate the herbicidal efficacy and crop safety of these test compounds. […] At 14 days after application of the test materials, phytotoxicity ratings were recorded. […]
Please provide measured phytotoxicity rating CASOB for the entries that follow.
Please reply with the value in numeric form only.

Query (compound): CCOC(=O)NNc1c(OC)c(Cl)cc(F)c1-n1c(=O)cc(C(F)(F)F)n(C)c1=O [15-6] ; field requested: phytotoxicity rating CASOB 90

And then COc1c(Cl)cc(F)c(-n2c(=O)cc(C(F)(F)F)n(C)c2=O)c1NN [Compound 15-1] , what is it? 100

And then COc1c(Cl)cc(F)c(-n2c(=O)cc(C(F)(F)F)n(C)c2=O)c1SC(C)C [17-2] , what is it? 0

And then COc1c(Cl)cc(F)c(-n2c(=O)cc(C(F)(F)F)n(C)c2=O)c1CC(C)(Cl)C(=O)OCCSC (centres unmarked) [14-48] , what is it? 0

And then COc1c(Cl)cc(F)c(-n2c(=O)cc(C(F)(F)F)n(C)c2=O)c1NN=C(C(F)(F)F)C(F)(F)F [15-21] , what is it? 100

And then CCOc1c(Cl)cc(F)c(-n2c(=O)cc(C(F)(F)F)n(C)c2=O)c1Cl [14-62] , what is it? 0

And then COc1c(Cl)cc(F)c(-n2c(=O)cc(C(F)(F)F)n(C)c2=O)c1NN=CC(C)c1ccccc1 (centres unmarked) [15-17] , what is it? 100

And then COc1c(Cl)cc(F)c(-n2c(=O)cc(C(F)(F)F)n(C)c2=O)c1NNC(=O)Oc1ccccc1 [15-7] , what is it? 100

And then Cn1c(C(F)(F)F)cc(=O)n(-c2ccc(Cl)cc2C(=O)c2ccccc2)c1=O [14-57] , what is it? 0

And then COc1c(Cl)cc(F)c(-n2c(=O)cc(C(F)(F)F)n(C)c2=O)c1NN=Cc1ccc(F)cc1F [15-20] , what is it? 60

And then COc1cc(Cl)cc(Cl)c1-n1c(=O)cc(C(F)(F)F)n(C)c1=O [16-2] , what is it? 0

And then COc1c(Cl)cc(F)c(-n2c(=O)cc(C(F)(F)F)n(C)c2=O)c1NNC(=O)c1ccccc1 [15-3] , what is it? 100

And then COc1c(Cl)cc(F)c(-n2c(=O)cc(C(F)(F)F)n(C)c2=O)c1OC(=O)c1ccc2ccccc2c1 [Compound 16-7] , what is it? 0

And then CCCOC(=O)C(Cl)Cc1c(OCC)c(Cl)cc(F)c1-n1c(=O)cc(C(F)(F)F)n(C)c1=O (centres unmarked) [14-66] , what is it? 0
